Would you mind telling me the reported EC50 of each entry?
Molecular target: human mGluR2 (Homo sapiens (Human))
Sequence (Q14416 19-872): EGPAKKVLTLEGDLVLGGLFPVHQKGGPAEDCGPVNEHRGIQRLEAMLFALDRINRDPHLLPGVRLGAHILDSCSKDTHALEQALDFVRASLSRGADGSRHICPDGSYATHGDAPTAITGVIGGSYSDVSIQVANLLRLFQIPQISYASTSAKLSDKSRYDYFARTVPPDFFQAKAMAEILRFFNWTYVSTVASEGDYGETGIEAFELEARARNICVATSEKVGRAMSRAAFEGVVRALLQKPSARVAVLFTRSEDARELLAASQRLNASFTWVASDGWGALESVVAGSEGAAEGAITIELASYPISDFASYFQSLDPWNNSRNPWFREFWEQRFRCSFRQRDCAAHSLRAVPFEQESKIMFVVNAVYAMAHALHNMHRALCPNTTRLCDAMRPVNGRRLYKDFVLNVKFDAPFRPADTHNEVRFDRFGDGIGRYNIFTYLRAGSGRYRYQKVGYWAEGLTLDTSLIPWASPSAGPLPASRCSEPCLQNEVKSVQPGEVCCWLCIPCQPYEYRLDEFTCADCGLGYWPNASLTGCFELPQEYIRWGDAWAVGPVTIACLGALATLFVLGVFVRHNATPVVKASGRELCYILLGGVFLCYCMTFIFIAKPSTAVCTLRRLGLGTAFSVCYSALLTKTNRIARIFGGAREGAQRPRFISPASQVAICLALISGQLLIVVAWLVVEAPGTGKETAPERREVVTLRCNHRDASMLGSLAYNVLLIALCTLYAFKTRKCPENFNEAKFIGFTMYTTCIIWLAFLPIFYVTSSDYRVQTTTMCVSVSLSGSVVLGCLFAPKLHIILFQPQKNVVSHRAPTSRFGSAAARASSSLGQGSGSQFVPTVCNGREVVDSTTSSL
Assay: MGluR2 cAMP assay
Conditions: HEK293 cells clonally expressing human mGluR2, 1 μM forskolin, 1 μM LY-341495
Give bare numbers, in nM.

compound | EC50 / nM
COc1cccc(F)c1C1CC1CNc1cnn2c(CC(F)(F)F)nnc2c1Cl (centres unmarked) | 31
COc1ccc(C2CCN(c3cnn4c(CC5CC5)nnc4c3Cl)CC2)cc1 | 18
Fc1ccccc1C1CCN(c2cnn3c(CC4CC4)nnc3c2C(F)(F)F)CC1 | 4
COc1ccccc1C1CCN(c2cnn3c(CC4CC4)nnc3c2Cl)CC1 | 9

Now take the following compound into account.
stdin: Look up EC50: COc1cccc(F)c1C1CC1CNc1cnn2c(CC3CC3)nnc2c1Cl (centres unmarked)
stdout: 28
